molecular target: T1, human CD71 extracellular domain (human, UniProt P02786 89-760, biotinylated); assay: primary ELISA; also: test concentration or dose not given here
T1 construct: also called hCD71; CD71-ECD
T1 sequence (P02786 89-760): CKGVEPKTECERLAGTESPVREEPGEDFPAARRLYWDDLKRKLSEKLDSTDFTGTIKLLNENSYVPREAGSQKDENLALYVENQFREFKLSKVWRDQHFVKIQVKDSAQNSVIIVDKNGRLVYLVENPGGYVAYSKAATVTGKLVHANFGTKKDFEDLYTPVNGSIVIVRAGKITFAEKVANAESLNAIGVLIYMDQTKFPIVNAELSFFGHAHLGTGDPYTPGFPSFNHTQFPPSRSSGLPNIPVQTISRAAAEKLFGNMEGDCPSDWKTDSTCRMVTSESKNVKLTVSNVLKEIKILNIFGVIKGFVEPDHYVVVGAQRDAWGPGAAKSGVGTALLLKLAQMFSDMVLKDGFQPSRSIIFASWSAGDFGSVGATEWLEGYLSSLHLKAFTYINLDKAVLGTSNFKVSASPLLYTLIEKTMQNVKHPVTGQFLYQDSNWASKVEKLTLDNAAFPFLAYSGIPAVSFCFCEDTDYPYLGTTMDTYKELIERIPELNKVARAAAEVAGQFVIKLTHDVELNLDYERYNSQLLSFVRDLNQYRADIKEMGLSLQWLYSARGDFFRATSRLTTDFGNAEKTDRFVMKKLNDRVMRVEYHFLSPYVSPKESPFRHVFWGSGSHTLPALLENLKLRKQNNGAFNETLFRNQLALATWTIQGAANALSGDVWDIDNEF
MEASURED ENDPOINT: RLU (RLU)
Give bare numbers, in RLU.

Previously resolved entries follow.
1. CD71-binding FN3 domain of SEQ ID NO: 505 (designed binder) MLPAPKNLVVSRVTEDSARLSWTALDAAFDSFFIGYLEPQPPGEAIHLFVPGSERSYDLTGLKPGTEYNVTIQGVKGGFPSEPLIANFTT | 5.38e+06
2. CD71-binding FN3 domain of SEQ ID NO: 542 (designed binder) MLPAPKNLVVSRVTEDSARLSWTAPDAAFDSFFIGYLEPQPPGEAIELFVPGSERSYDLTGLKPGTEYNVTIQGVKGGFPSMPLSAIFTT | 2.13e+06
3. CD71-binding FN3 domain of SEQ ID NO: 493 (designed binder) MLPAPKNLVVSRVTEDSARLSWTAPDAAFDSFFIGYLEPQPPGEAILLAVPGSERSYDLTGLKPGTEYNVTIQGVKGGFPSLPLVAHFTT | 2.75e+06

Now turn to the next binder.
Which RLU value belongs to CD71-binding FN3 domain of SEQ ID NO: 496 (designed binder) MLPAPKNLVVSRVTEDSARLSWTAPDAAFDSFFIGYLEPQPPGEAIILWVPGSERSYDLTGLKPGTEYNVTIQGVKGGFPSVPLIAQFTT ? 5.27e+06
